System: Pseudomonas aeruginosa
Test: Antibacterial activity against Pseudomonas aeruginosa […] after 18 to 20 hrs by two-fold microbroth dilution method
Assay type: functional
PROPERTY LABEL: MIC

Example compounds with recorded MIC:
smiles_representation=CC(=O)OC[C@H]1O[C@@H](NC(=S)N/N=C2/C(=O)Nc3ccc(I)cc32)[C@H](OC(C)=O)[C@@H](OC(C)=O)[C@@H]1OC(C)=O assay_value="25 µM"
smiles_representation=CC(=O)OC[C@H]1O[C@@H](NC(=S)N/N=C2/C(=O)Nc3c(Br)cc(Br)cc32)[C@H](OC(C)=O)[C@@H](OC(C)=O)[C@@H]1OC(C)=O assay_value="50 µM"

Now for a further compound.
Req: Look up MIC: CCCN1C(=O)/C(=N/NC(=S)N[C@@H]2O[C@H](COC(C)=O)[C@@H](OC(C)=O)[C@H](OC(C)=O)[C@H]2OC(C)=O)c2ccccc21
Resp: 12.5 µM

----------
System: Rattus norvegicus
Test: Antioxidant activity in CCL4-intoxicated Wistar albino rat assessed as liver cytosolic glutathione peroxidase activity per mg protein at 100 mg/kg, ip administered for 7 consecutive days after DL-alpha-tocopherol acetate treatment followed by CCL4 dosing measured after 24 hrs by H2O2 based spectrophotometric analysis (reference value: 0.28 +/- 0.01 U)
Type: functional
Where Activity equals or exceeds 0.4 U, the correct label is yes (1); where it does not, the label is no (0).

Check out these entries, answers already filled in.
smiles_representation=CC(=O)OC[C@H]1O[C@@H](NC(=S)N/N=C2/C(=O)Nc3c(Br)cc(Br)cc32)[C@H](OC(C)=O)[C@@H](OC(C)=O)[C@@H]1OC(C)=O class="no (0)"
smiles_representation=CC(=O)OC[C@H]1O[C@@H](NC(=S)N/N=C2/C(=O)Nc3c2cc(Cl)cc3[N+](=O)[O-])[C@H](OC(C)=O)[C@@H](OC(C)=O)[C@@H]1OC(C)=O class="no (0)"
smiles_representation=CC(=O)OC[C@H]1O[C@@H](NC(=S)N/N=C2/C(=O)Nc3ccc(C)cc32)[C@H](OC(C)=O)[C@@H](OC(C)=O)[C@@H]1OC(C)=O class="yes (1)"
smiles_representation=CC(=O)OC[C@H]1O[C@@H](NC(=S)N/N=C2/C(=O)Nc3ccc(Cl)cc32)[C@H](OC(C)=O)[C@@H](OC(C)=O)[C@@H]1OC(C)=O class="no (0)"
smiles_representation=CC(=O)OC[C@H]1O[C@@H](NC(=S)N/N=C2/C(=O)Nc3c2cc(Br)cc3[N+](=O)[O-])[C@H](OC(C)=O)[C@@H](OC(C)=O)[C@@H]1OC(C)=O class="no (0)"

We next turn to a different molecule, shown below.
Req: Could you verify whether the entry CC(=O)OC[C@H]1O[C@@H](NC(=S)N/N=C2/C(=O)Nc3c(C)cccc32)[C@H](OC(C)=O)[C@@H](OC(C)=O)[C@@H]1OC(C)=O shows Activity of no less than 0.4 U?
Resp: yes (1)

----------
Assay: Cytotoxicity against human SW480 cells after 3 days by MTT assay
Assay type: functional, cell-based
Settings: SW480, 72 h
Each entry below carries its reported pIC50.
Give only the number. pIC50 is defined as minus log10 of concentration in molar units.

compound="Cc1c2ccncc2c(C)c2c1[nH]c1ccccc12 [ELLIPTECINE]" assay_value=6.12

Now for a further compound.
Req: Look up pIC50: CC(=O)OC[C@H]1O[C@@H](NC(=S)N/N=C2/C(=O)Nc3c(Br)cc(Br)cc32)[C@H](OC(C)=O)[C@@H](OC(C)=O)[C@@H]1OC(C)=O
Resp: 5.32

----------
Tested on: Pseudomonas aeruginosa
Assay: Antibacterial activity against Pseudomonas aeruginosa […] after 18 to 20 hrs by two-fold microbroth dilution method
Type: functional
Each entry below carries its reported MIC.
Number only, in µM; omit the unit.

Example compounds with recorded MIC:
smiles_representation=CC(=O)OC[C@H]1O[C@@H](NC(=S)N/N=C2/C(=O)Nc3ccc(C)cc32)[C@H](OC(C)=O)[C@@H](OC(C)=O)[C@@H]1OC(C)=O unit=µM assay_value=25
smiles_representation=CC(=O)OC[C@H]1O[C@@H](NC(=S)N/N=C2/C(=O)N(CCc3ccccc3)c3ccccc32)[C@H](OC(C)=O)[C@@H](OC(C)=O)[C@@H]1OC(C)=O unit=µM assay_value=100
smiles_representation=CC(=O)OC[C@H]1O[C@@H](NC(=S)N/N=C2/C(=O)Nc3c(C)cccc32)[C@H](OC(C)=O)[C@@H](OC(C)=O)[C@@H]1OC(C)=O unit=µM assay_value=25
smiles_representation=CC(=O)OC[C@H]1O[C@@H](NC(=S)N/N=C2/C(=O)N(CC(C)C)c3ccccc32)[C@H](OC(C)=O)[C@@H](OC(C)=O)[C@@H]1OC(C)=O unit=µM assay_value=12.5
smiles_representation=CC(=O)OC[C@H]1O[C@@H](NC(=S)N/N=C2/C(=O)N(C)c3ccccc32)[C@H](OC(C)=O)[C@@H](OC(C)=O)[C@@H]1OC(C)=O unit=µM assay_value=25

Req: Look up MIC: CC(=O)OC[C@H]1O[C@@H](NC(=S)N/N=C2/C(=O)Nc3ccccc32)[C@H](OC(C)=O)[C@@H](OC(C)=O)[C@@H]1OC(C)=O
Resp: 50

----------
Test system: Staphylococcus aureus
Test: Antibacterial activity against methicillin-resistant Staphylococcus aureus 198-3 after 18 to 20 hrs by two-fold microbroth dilution method
Format: functional
PROPERTY LABEL: MIC (µM)
Number only, in µM; omit the unit.

Example molecules with recorded MIC:
smiles_representation=CCCN1C(=O)/C(=N/NC(=S)N[C@@H]2O[C@H](COC(C)=O)[C@@H](OC(C)=O)[C@H](OC(C)=O)[C@H]2OC(C)=O)c2ccccc21 assay_value=100
smiles_representation=CC(=O)OC[C@H]1O[C@@H](NC(=S)N/N=C2/C(=O)N(CC(C)C)c3ccccc32)[C@H](OC(C)=O)[C@@H](OC(C)=O)[C@@H]1OC(C)=O assay_value=100
smiles_representation=CC(=O)OC[C@H]1O[C@@H](NC(=S)N/N=C2/C(=O)Nc3ccccc32)[C@H](OC(C)=O)[C@@H](OC(C)=O)[C@@H]1OC(C)=O assay_value=200
smiles_representation=CC(=O)OC[C@H]1O[C@@H](NC(=S)N/N=C2/C(=O)Nc3c(Br)cc(Br)cc32)[C@H](OC(C)=O)[C@@H](OC(C)=O)[C@@H]1OC(C)=O assay_value=0.78
smiles_representation=CC(=O)OC[C@H]1O[C@@H](NC(=S)N/N=C2/C(=O)Nc3ccc(I)cc32)[C@H](OC(C)=O)[C@@H](OC(C)=O)[C@@H]1OC(C)=O assay_value=6.25

Req: Look up MIC: CC(=O)OC[C@H]1O[C@@H](NC(=S)N/N=C2/C(=O)Nc3ccc(Br)cc32)[C@H](OC(C)=O)[C@@H](OC(C)=O)[C@@H]1OC(C)=O
Resp: 3.12

Req: Look up MIC: CC(=O)OC[C@H]1O[C@@H](NC(=S)N/N=C2/C(=O)Nc3ccc(F)cc32)[C@H](OC(C)=O)[C@@H](OC(C)=O)[C@@H]1OC(C)=O
Resp: 1.56

Req: Look up MIC: CCCCN1C(=O)/C(=N/NC(=S)N[C@@H]2O[C@H](COC(C)=O)[C@@H](OC(C)=O)[C@H](OC(C)=O)[C@H]2OC(C)=O)c2ccccc21
Resp: 100

Req: Look up MIC: CC(=O)OC[C@H]1O[C@@H](NC(=S)N/N=C2/C(=O)N(C)c3ccccc32)[C@H](OC(C)=O)[C@@H](OC(C)=O)[C@@H]1OC(C)=O
Resp: 100

Req: Look up MIC: CN[C@H](CC(C)C)C(=O)N[C@H]1C(=O)N[C@@H](CC(N)=O)C(=O)N[C@H]2C(=O)N[C@H]3C(=O)N[C@H](C(=O)N[C@H](C(=O)O)c4cc(O)cc(O)c4-c4cc3ccc4O)[C@H](O)c3ccc(c(Cl)c3)Oc3cc2cc(c3O[C@@H]2O[C@H](CO)[C@@H](O)[C@H](O)[C@H]2O[C@H]2C[C@](C)(N)[C@H](O)[C@H](C)O2)Oc2ccc(cc2Cl)[C@H]1O
Resp: 1.65

Req: Look up MIC: CC(=O)OC[C@H]1O[C@@H](NC(=S)N/N=C2/C(=O)Nc3c(C)cccc32)[C@H](OC(C)=O)[C@@H](OC(C)=O)[C@@H]1OC(C)=O
Resp: 12.5

Req: Look up MIC: CC(=O)OC[C@H]1O[C@@H](NC(=S)N/N=C2/C(=O)Nc3ccc(Cl)cc32)[C@H](OC(C)=O)[C@@H](OC(C)=O)[C@@H]1OC(C)=O
Resp: 0.78

Req: Look up MIC: CC(=O)OC[C@H]1O[C@@H](NC(=S)N/N=C2/C(=O)N(CCc3ccccc3)c3ccccc32)[C@H](OC(C)=O)[C@@H](OC(C)=O)[C@@H]1OC(C)=O
Resp: 200

Req: Look up MIC: CC(=O)OC[C@H]1O[C@@H](NC(=S)N/N=C2/C(=O)Nc3ccc(C)cc32)[C@H](OC(C)=O)[C@@H](OC(C)=O)[C@@H]1OC(C)=O
Resp: 12.5
